// cross-source set; read-out = pIC50; system = Tyrosine-protein kinase JAK2 (Homo sapiens, UniProt O60674)
pIC50: −log10 of the molar value.

In: Give Tyrosine-protein kinase JAK2 (Homo sapiens, UniProt O60674) pIC50 for the following compound: CCC(Cn1ccc2cnc(Nc3cnn(CC(=O)OCC(O)CO)c3)nc21)C(C)C (stereo not shown)
Out: > 7.00

In: Give Tyrosine-protein kinase JAK2 (Homo sapiens, UniProt O60674) pIC50 for the following compound: `CCS(=O)(=O)N1CC(CC#N)(n2cc(-c3nc(Nc4cnn(C(=O)COC)c4)nc4ccsc34)cn2)C1`
Out: > 7.30

In: Give Tyrosine-protein kinase JAK2 (Homo sapiens, UniProt O60674) pIC50 for the following compound: COCCC(C1CC1(F)F)n1cc(-c2nc(-c3cnn(C)c3)cc3nccn23)cn1 (stereo not shown)
Out: 6.00 to 7.00

In: Give Tyrosine-protein kinase JAK2 (Homo sapiens, UniProt O60674) pIC50 for the following compound: `CN1CC[C@H](Oc2ccc(Nc3ncnc(-c4ccc(O[C@H]5CCN(C(=O)[C@@H](O)CO)C[C@H]5F)c(C#N)c4)n3)cc2)[C@H](F)C1`
Out: 6.12

###

pIC50: −log10 of the molar value.
// cross-source set; read-out = pIC50; system = Tyrosine-protein kinase JAK2 (Homo sapiens, UniProt O60674)

>  <smiles-str>
CCS(=O)(=O)N1CCC(N2CC(CC#N)(n3cc(-c4ncnc5[nH]ccc45)cn3)C2)CC1

>  <observed-value>
7.30 to 8.00

$$$$
>  <smiles-str>
CN(c1ncnc2[nH]ccc12)C1CCC2(CC1)CCN(S(=O)(=O)CC(F)(F)F)CC2

>  <observed-value>
6.00 to 7.00

$$$$
>  <smiles-str>
COc1ncc(-c2cc3nccn3c(-c3cnn(C4(CC#N)CN(S(=O)(=O)C(F)(F)F)C4)c3)n2)cn1

>  <observed-value>
< 6.00

$$$$

In: Give Tyrosine-protein kinase JAK2 (Homo sapiens, UniProt O60674) pIC50 for the following molecule: `CC(C)S(=O)(=O)N1CC(CC#N)(n2cc(-c3nc(-c4cnn(C)c4)cc4nccn34)cn2)C1`
Out: 6.00 to 7.00

In: Give Tyrosine-protein kinase JAK2 (Homo sapiens, UniProt O60674) pIC50 for the following molecule: `Cc1cnc2nc1Nc1cccc(c1)CCCNC(=O)c1ccc(cc1S(C)(=O)=O)-c1cnc(F)c(c1)N2`
Out: > 8.00

In: Give Tyrosine-protein kinase JAK2 (Homo sapiens, UniProt O60674) pIC50 for the following molecule: `Cc1ccc(C(=O)Nc2cc(CN3CCN(CC4CC4)CC3)cc(C(F)(F)F)c2)cc1-c1ccc2nc(NC(=O)C3CC3)cn2n1`
Out: 6.11

In: Give Tyrosine-protein kinase JAK2 (Homo sapiens, UniProt O60674) pIC50 for the following molecule: `N#CCC1(n2ccc(-c3ncnc4[nH]ccc34)c2)CN(C2CCN(C(=O)c3ccc(F)c(F)c3)CC2)C1`
Out: 7.30 to 8.00

###

// cross-source set; read-out = pIC50; system = Tyrosine-protein kinase JAK2 (Homo sapiens, UniProt O60674)
pIC50: −log10 of the molar value.

>  <compound>
Cn1cc(-c2cc3nccn3c(-c3cnn(C4(CC#N)CN(CC(F)(F)F)C4)c3)n2)cn1

>  <pIC50>
7.00 to 8.00

$$$$
>  <compound>
COc1cc(Nc2ncnc(-c3ccc(O[C@H]4CCN(C(=O)[C@H](C)O)C[C@H]4F)c(C#N)c3)n2)ccn1

>  <pIC50>
≤ 6.00

$$$$
>  <compound>
Cn1cc(-c2cc3nccn3c(-c3cnn(C4(CC#N)CN(CC(F)(F)C(F)F)C4)c3)n2)cn1

>  <pIC50>
7.00 to 8.00

$$$$
>  <compound>
Cc1ccsc1C(=O)N1CCC2(CCC(N(C)c3ncnc4[nH]ccc34)CC2)CC1

>  <pIC50>
6.00 to 7.00

$$$$
>  <compound>
Cn1cc(-c2cc3nccn3c(-c3cnn(C(CCCF)C4CC4)c3)n2)cn1 (centres unmarked)

>  <pIC50>
7.00 to 8.00

$$$$

In: Note down pIC50 recorded for `N#Cc1cc(-c2ncnc(Nc3cccc(N4CCOCC4)c3)n2)ccc1OC1CCOCC1`
Out: 6.03

In: Note down pIC50 recorded for `CC(C)(O)Cn1nnc2cc(Nc3ncc(Cl)c(NC4CCN(c5ccc(C#N)nn5)CC4)n3)ccc21`
Out: 8.70

In: Note down pIC50 recorded for `CN1CCC(CC#N)(n2cc(-c3nc(-c4cnn(C)c4)cc4nccn34)cn2)CC1`
Out: 6.00 to 7.00

###

// cross-source set; read-out = pIC50; system = Tyrosine-protein kinase JAK2 (Homo sapiens)
pIC50: −log10 of the molar value.

In: Give Tyrosine-protein kinase JAK2 (Homo sapiens) pIC50 for the following compound: `CCC(=O)c1cnc(Nc2cnc(CN(C)CC(F)F)cn2)cc1Nc1cccc(-c2ncn(C)n2)c1OC`
Out: ≤ 6.30

In: Give Tyrosine-protein kinase JAK2 (Homo sapiens) pIC50 for the following compound: `COc1cc(F)cc(F)c1COc1ccc2cc1COCCCCNC(=O)c1ccc(c(N)c1)-c1ccnc(n1)N2`
Out: 6.00 to 7.00

In: Give Tyrosine-protein kinase JAK2 (Homo sapiens) pIC50 for the following compound: `CCN1CCN(Cc2cc(NC(=O)c3ccc(C#N)c(-c4ccc5nc(NC(=O)C6CC6)cn5n4)c3)cc(C(F)(F)F)c2)CC1`
Out: 5.29

In: Give Tyrosine-protein kinase JAK2 (Homo sapiens) pIC50 for the following compound: `CC(C)OC(=O)Cn1cc(Nc2ncc3ccn(C[C@@H](CCCl)C(C)C)c3n2)cn1`
Out: > 7.00

In: Give Tyrosine-protein kinase JAK2 (Homo sapiens) pIC50 for the following compound: `N#Cc1cc(-c2ncnc(Nc3ccc(N4CCN(C5COC5)CC4)cc3)n2)ccc1O[C@H]1CCN(c2cccnc2)C[C@H]1F`
Out: ≤ 6.00

In: Give Tyrosine-protein kinase JAK2 (Homo sapiens) pIC50 for the following compound: `Cc1c(Cl)cccc1OC[C@H](O)CNc1cc[nH]c(=O)c1-c1nc2cc3c(cc2[nH]1)C(=O)N(C1CCN(CCO)CC1)C3=O`
Out: 5.30 to 6.30

In: Give Tyrosine-protein kinase JAK2 (Homo sapiens) pIC50 for the following compound: `COCCN1CCN(Cc2ccc(-c3cc(C(N)=O)c4[nH]c5cc(N6CCOCC6)ccc5c4n3)s2)CC1`
Out: 8.22

###

// cross-source set; read-out = IC50; system = Tyrosine-protein kinase JAK2 (Homo sapiens, UniProt O60674)

>  <compound>
CCS(=O)(=O)N1CC(CC#N)(n2cc(-c3ccnc(Nc4ccc(C(=O)N5CCC5)cc4)n3)cn2)C1

>  <property>
IC50

>  <observed-value>
< 100 nM

$$$$
>  <compound>
C=CCC(CC1CC1)n1cc(-c2nc(-c3cnn(C)c3)cc3nccn23)cn1 (stereo not drawn)

>  <property>
IC50

>  <observed-value>
10 to 100 nM

$$$$

In: Give Tyrosine-protein kinase JAK2 (Homo sapiens, UniProt O60674) IC50 for the following compound: CC1CCNC(=O)c2ccc(c(N)c2)-c2ccnc(n2)Nc2ccc(OCC(F)(F)F)c(c2)COC1 (stereo not drawn)
Out: 101 to 1000 nM

In: Give Tyrosine-protein kinase JAK2 (Homo sapiens, UniProt O60674) IC50 for the following compound: O=S(=O)(c1cccc2cccnc12)n1ccc2cnc(Nc3ccc(N4CC5CC4CN5)cc3)nc21 (stereo not drawn)
Out: < 20 nM

In: Give Tyrosine-protein kinase JAK2 (Homo sapiens, UniProt O60674) IC50 for the following compound: `Cc1cnc2nc1Nc1ccccc1CCNC(=O)c1ccc(cc1F)-c1cnc(F)c(c1)N2`
Out: 11 to 100 nM

In: Give Tyrosine-protein kinase JAK2 (Homo sapiens, UniProt O60674) IC50 for the following compound: CCC(=O)c1cnc(Nc2cnc(C(N(C)C)C(F)(F)F)cn2)cc1Nc1cccc(-c2ncn(C)n2)c1OC (stereo not drawn)
Out: ≥ 500 nM

In: Give Tyrosine-protein kinase JAK2 (Homo sapiens, UniProt O60674) IC50 for the following compound: CCC(CC)Cn1ccc2cnc(Nc3cnn(CC(=O)OC(C)C(C)O)c3)nc21 (stereo not drawn)
Out: < 100 nM

In: Give Tyrosine-protein kinase JAK2 (Homo sapiens, UniProt O60674) IC50 for the following compound: N#Cc1cc(-c2ncnc(Nc3ccc(N4CCN(C5COC5)CC4)cc3)n2)ccc1O[C@H]1CCN(C(=O)CO)C[C@@H]1C(F)(F)F (relative stereo)
Out: 15 nM

###

// cross-source set; read-out = IC50; system = Tyrosine-protein kinase JAK2 (Homo sapiens)

>  <compound>
O=C1NCCCCOCc2cc(ccc2OCC2CCC(F)(F)C2)Nc2nccc(n2)-c2ccc1cc2[N+](=O)[O-] (stereo not shown)

>  <property>
IC50

>  <observed-value>
1000 to 10000 nM

$$$$
>  <compound>
CCC(CC)n1cc(-c2nc(-c3cnn(C[C@H](O)CO)c3)cn3nccc23)cn1

>  <property>
IC50

>  <observed-value>
100 to 1000 nM

$$$$
>  <compound>
CC(C)(C)NS(=O)(=O)c1cccc(N2CCc3cnc(Nc4ccc(N5CCOCC5)cc4)nc32)c1

>  <property>
IC50

>  <observed-value>
2.2 nM

$$$$

Query compound follows.
In: Give Tyrosine-protein kinase JAK2 (Homo sapiens) IC50 for the following compound: `Cn1cc(-c2cc3nccn3c(-c3cnn([C@@H](CC=C(F)F)C4CC4)c3)n2)cn1`
Out: < 10 nM
